Recorded inhibition values for a group of compounds are listed next.
# target: Glucose transporter (Leishmania mexicana)
# protocol: ST_JUDE_LEISH: Cytotoxicity at 2uM final concentration against transgenic Leishmania Mexicana promastigotes LmGT2 that are glucose transport deficient and complemented with the L. Mexicana glucose transporter 2. Activity is measured by DNA content using SYBR green in vitro
# Format: functional
measurement.kind: inhibition (%)

INSERT INTO results (compound, number) VALUES
  ('CCOC(=O)Cn1ccc2c(NCc3ccccc3)nc(C)nc21', 2.53),
  ('OCCN1CCN(Cc2ccc(-c3ccc(-c4nc5cc(F)ccc5[nH]4)cc3)cc2)CC1', 3.78),
  ('COc1cc(OC)c2c(C)cc(NCCCN3CCOCC3)nc2c1', -0.42),
  ('CCCCCCc1cc2cc(-c3csc(C=Cc4ccccc4)n3)c(=O)oc2cc1O', 9.7),
  ('c1cc(OCCN2CCCC2)ccc1CNC1CCN(CC2CCCCC2)CC1', -4.21),
  ('O=C(NCc1ccc(Cl)c(Cl)c1)c1ccc(-c2nc3ccc(Cl)cc3[nH]2)cc1', 3.4),
  ('CCN(CC)S(=O)(=O)n1ncc2c3c(N)nc(N)nc3ccc21', -2.31),
  ('COc1ccc(NC(=O)Nc2ccc(-c3ccncc3)c(C(F)(F)F)c2)cc1N1CCN(C)CC1', 9.27),
  ('O=C(Nc1ccc(Cl)c(Cl)c1)Nc1ccc(F)c([N+](=O)[O-])c1', -2.36),
  ('COc1ccc(OC)c(NC(=O)C2c3ccccc3C(=O)N(CC(C)C)C2c2cccs2)c1 (stereo not given)', -0.44);

###

Recorded inhibition values for a group of compounds are listed next.
# target: Hexose transporter 1 (Plasmodium falciparum) (UniProt O97467)
# protocol: ST_JUDE_LEISH: Cytotoxicity at 2uM final concentration against transgenic Leishmania Mexicana promastigotes LmPfHT that are glucose transport deficient and complemented with the Plasmodium falciparum hexose transporter. Activity is measured by DNA content using SYBR green in vitro
# Format: functional
measurement.kind: inhibition (%)

INSERT INTO assay_data (compound, target, unit_string, number) VALUES
  ('Cc1ccc(-c2cc(C(=O)Nc3ccc(S(=O)(=O)N(C)Cc4ccccc4)cc3)[nH]n2)c(O)c1', 'Hexose transporter 1 (Plasmodium falciparum) (UniProt O97467)', '%', 0.3),
  ('CN1CCN(Cc2ccc(-c3ccc4c(Nc5ccc(Oc6ccccc6)cc5)ccnc4c3)o2)CC1', 'Hexose transporter 1 (Plasmodium falciparum) (UniProt O97467)', '%', -0.3),
  ('CCc1cc(COc2ccc(CNCCC(C)C)cc2I)c(OCc2ccccc2)c(COc2ccc(CNCCC(C)C)cc2I)c1', 'Hexose transporter 1 (Plasmodium falciparum) (UniProt O97467)', '%', -3.29),
  ('Nc1ncc(-c2ccc3nccc(-c4ccncc4)c3c2)cc1S(=O)(=O)N1CCOCC1', 'Hexose transporter 1 (Plasmodium falciparum) (UniProt O97467)', '%', 3.05),
  ('COc1cc(NC(=O)c2cc([N+](=O)[O-])ccc2NC(=O)CNC2CCCC(C)C2C)cc(OC)c1 (centres undefined)', 'Hexose transporter 1 (Plasmodium falciparum) (UniProt O97467)', '%', 4.27),
  ('CN(C)CCNCc1cccc(-c2ccc3c(Nc4ccc(F)cc4Cl)ccnc3c2)c1', 'Hexose transporter 1 (Plasmodium falciparum) (UniProt O97467)', '%', 3.29),
  ('Oc1ccc2ccccc2c1CNCC1CCCCC1', 'Hexose transporter 1 (Plasmodium falciparum) (UniProt O97467)', '%', 3.31),
  ('O=C(/C=C/c1ccc([N+](=O)[O-])cc1)N1CCC(NS(=O)(=O)c2ccc(Br)cc2)CC1', 'Hexose transporter 1 (Plasmodium falciparum) (UniProt O97467)', '%', 1.13),
  ('COc1ccc(CNc2ccc3nc(N)nc(N)c3c2)cc1', 'Hexose transporter 1 (Plasmodium falciparum) (UniProt O97467)', '%', 1.62),
  ('COc1ccc(C2N=C(N)N=C(N)N2c2ccc(Cl)cc2)cc1OC (centres undefined)', 'Hexose transporter 1 (Plasmodium falciparum) (UniProt O97467)', '%', 2.52),
  ('CCC1N=C(N)N=C(N)N1OCCCOc1c(Cl)cc(Cl)cc1Cl (centres undefined)', 'Hexose transporter 1 (Plasmodium falciparum) (UniProt O97467)', '%', 2.05),
  ('c1ccc2c(NCCCCCCCNc3ccnc4ccccc34)ccnc2c1', 'Hexose transporter 1 (Plasmodium falciparum) (UniProt O97467)', '%', 13.3),
  ('COc1ccc2ccccc2c1CCCCN1CCN(CC(c2ccc(F)cc2)N2CCC2)CC1 (centres undefined)', 'Hexose transporter 1 (Plasmodium falciparum) (UniProt O97467)', '%', 3.64),
  ('CCOC(=O)N/N=C/[C@H](CCc1ccccc1)NC(=O)[C@H](CC(C)C)NC(=O)c1cc2cccc(OC)c2o1', 'Hexose transporter 1 (Plasmodium falciparum) (UniProt O97467)', '%', 5.56),
  ('Cc1nnnn1-c1ccc(C(=O)N2CCC3(CC2)CN(Cc2ccc(Cl)c(Cl)c2)C(=O)O3)cc1', 'Hexose transporter 1 (Plasmodium falciparum) (UniProt O97467)', '%', 8.51),
  ('c1ccc(CN2CCc3cc4nccc(N5CCNCC5)c4cc32)cc1', 'Hexose transporter 1 (Plasmodium falciparum) (UniProt O97467)', '%', -1.76),
  ('CCCCCOc1ccc(C=NNc2nc(O)cc(-c3ccccc3)n2)cc1', 'Hexose transporter 1 (Plasmodium falciparum) (UniProt O97467)', '%', 2.5),
  ('Cc1cc(N[C@@H](Cc2ccccc2)C(=O)NCc2cccc(F)c2)nc(NCCc2ccc(F)cc2)n1', 'Hexose transporter 1 (Plasmodium falciparum) (UniProt O97467)', '%', 2.55),
  ('O=C(Cn1c(CCc2cccc(F)c2F)nc(=O)c2ccccc21)N(Cc1ccc(-c2ccc(C(F)(F)F)cc2)cc1)C1CCN(C2CCOCC2)CC1', 'Hexose transporter 1 (Plasmodium falciparum) (UniProt O97467)', '%', 2.37),
  ('CN(C)CCNc1cc(-c2cccnc2)nc(-c2ccncc2)n1', 'Hexose transporter 1 (Plasmodium falciparum) (UniProt O97467)', '%', -1.16),
  ('CCN(CCO)Cc1ccc(-c2ccc(NS(=O)(=O)c3cccc4cccnc34)cc2)cc1', 'Hexose transporter 1 (Plasmodium falciparum) (UniProt O97467)', '%', 95.5),
  ('COc1ccc(Cc2c(Cl)nc3nc(N)nc(N)c3c2C)c(OC)c1OC', 'Hexose transporter 1 (Plasmodium falciparum) (UniProt O97467)', '%', 12.4),
  ('COc1ccc2nccc([C@@H](O)CN3CCC(NCC(=O)Nc4cc(F)cc(F)c4)CC3)c2n1', 'Hexose transporter 1 (Plasmodium falciparum) (UniProt O97467)', '%', 47.2),
  ('CC(C)C[C@@H](/C=N/N1CCOC1=O)NC(=O)[C@H](CC(C)C)NC(=O)c1ccc(F)cc1', 'Hexose transporter 1 (Plasmodium falciparum) (UniProt O97467)', '%', 11.5),
  ('O=C(Nc1ccc(Cn2ncc(N3CCCNCC3)c(Cl)c2=O)cc1)Nc1cc(Cl)cc(Cl)c1', 'Hexose transporter 1 (Plasmodium falciparum) (UniProt O97467)', '%', 3.38),
  ('CO/C(=C\C=C\c1cc2cc(Cl)c(Cl)cc2[nH]1)C(=O)NCCCN1CCN(c2cccc(CCO)c2)CC1', 'Hexose transporter 1 (Plasmodium falciparum) (UniProt O97467)', '%', 1.35),
  ('Cn1nc(-c2ccc(NC(=O)Nc3cc(C(F)(F)F)ccc3F)c(F)c2)c2cnc(NCCCN3CCOCC3)nc21', 'Hexose transporter 1 (Plasmodium falciparum) (UniProt O97467)', '%', 6.96),
  ('O=C(Nc1cccc([N+](=O)[O-])c1)Nc1ccc(Cl)c(C(F)(F)F)c1', 'Hexose transporter 1 (Plasmodium falciparum) (UniProt O97467)', '%', 1.56),
  ('O=C(Nc1cccc(Cl)c1Cl)N1CCc2cc3nccc(N4CCN5CCC[C@H]5C4)c3cc21', 'Hexose transporter 1 (Plasmodium falciparum) (UniProt O97467)', '%', 1.06),
  ('COc1cc2nc(N(C)Cc3cccc(I)c3)nc(N)c2cc1OC', 'Hexose transporter 1 (Plasmodium falciparum) (UniProt O97467)', '%', 7.24),
  ('CNCCNCc1ccc(-c2ccc(-c3nc4cc(C(F)(F)F)ccc4[nH]3)cc2)cc1', 'Hexose transporter 1 (Plasmodium falciparum) (UniProt O97467)', '%', 3.17),
  ('CCc1ccc(CN2CCC(CNC(=O)c3cc(-c4ccccc4F)cs3)C2)cc1 (centres undefined)', 'Hexose transporter 1 (Plasmodium falciparum) (UniProt O97467)', '%', -3.47),
  ('Cc1cc(N2CCC(C)CC2)nc2cc(O)ccc12', 'Hexose transporter 1 (Plasmodium falciparum) (UniProt O97467)', '%', 0.44),
  ('O=C(/C=C/c1ccc(Cl)c(Cl)c1)NCCCCCN1CCCN(C(=S)Nc2cccc(Cl)c2)CC1', 'Hexose transporter 1 (Plasmodium falciparum) (UniProt O97467)', '%', -0.74),
  ('CC(=O)c1ccc(Nc2c(C(N)=O)cnc3cc(-c4c(C)noc4C)ccc23)cc1', 'Hexose transporter 1 (Plasmodium falciparum) (UniProt O97467)', '%', 6.39),
  ('CCCC(C(CC1CCC(C)CC1)C(=O)NC(CCCNc1ncccn1)C(=O)Nc1nccs1)N(O)C=O (centres undefined)', 'Hexose transporter 1 (Plasmodium falciparum) (UniProt O97467)', '%', 3.89),
  ('O=C(Cc1ccc([N+](=O)[O-])cc1)N1CCc2cc3nccc(N4CCN5CCC[C@@H]5C4)c3cc21', 'Hexose transporter 1 (Plasmodium falciparum) (UniProt O97467)', '%', 0.39),
  ('CC(C)CSc1cc(C(=O)Nc2cc(Cl)ccc2O)ccn1', 'Hexose transporter 1 (Plasmodium falciparum) (UniProt O97467)', '%', -0.12),
  ('COc1ccc(NC(=O)NC2CCN(CCCOc3ccnc4cc(Cl)ccc34)C2)cc1OC (centres undefined)', 'Hexose transporter 1 (Plasmodium falciparum) (UniProt O97467)', '%', -0.13);

The reported numbers originate from ChEMBL document CHEMBL3433997.
